- System: SR leukemia
- experiment: NCI tumour cell line growth inhibition, 48 h
measured_endpoint: GI50

Ask: Value wanted: GI50 (SR leukemia) of entry CS(=O)(=O)c1ccc([C@H]2O[C@@H](CO)C[C@]2(O)c2ccc(S(C)(=O)=O)cc2)cc1
Reply: > 100000 nM

Ask: Item: CCC[CH2][Sn]1([CH2]CCC)[O]Cc2nc(C)ccc2[O]1
Reply: 2950 nM

Ask: Item: NC(=O)c1ccc(I)c(N)c1
Reply: > 100000 nM

Ask: Item: COC(=O)[C@]12CC[C@@H](C)[C@H](C)[C@@H]1C1=CC[C@@H]3[C@@]4(C)C/C(=N\O)[C@H](O)[C@@]5(C)COC(=C45)C[C@@]3(C)[C@]1(C)CC2
Reply: 2330 nM

Ask: Item: CC1(C)OC2[C@@H](CNC(=O)NC(=O)NC(=O)CI)O[C@@H](n3cnc4c(NC(=O)Nc5ccccc5)ncnc43)[C@H]2O1 (stereo not given in full)
Reply: 954 nM

###

- Tested on: DMS 273 small cell lung
- experiment: NCI tumour cell line growth inhibition, 48 h
measured_endpoint: TGI

Ask: Value wanted: TGI (DMS 273 small cell lung) of entry O=C1CCC(=O)N2CCCCN12
Reply: > 100 µM

Ask: Item: C/C(CC(=O)Nc1ccc(C)cc1C)=N/N=C(N)N
Reply: > 100 µM

Ask: Item: COC12C=C(C)C(CC1)CC2C(=O)O (stereo not drawn)
Reply: > 100 µM

###

- Tested on: HCT-116 colon
- experiment: NCI tumour cell line growth inhibition, 48 h
measured_endpoint: TGI

Ask: What TGI value was documented for this molecule, O=C1CCC(=O)N2CCCCN12 ?
Reply: > 100 µM

Ask: Item: O=C(/C(Br)=C/c1ccccc1)c1ccccc1
Reply: 3.12 µM

Ask: Item: OCC(O)CC[CH2][Sn]([Br])([c]1ccccc1)[c]1ccccc1 (stereo not drawn)
Reply: > 100 µM

Ask: Item: C[C@@H]1OC(O)[C@@H](F)[C@H](O)[C@@H]1O (stereo partly drawn)
Reply: > 100 µM

Ask: Item: COc1cc(I)c2c3c1OC1C34CCN(C)C(C2)C4=CC(I)C1(OC)OC (stereo not drawn)
Reply: 60.6 µM

Ask: Item: O=C1CCCCN1CCCCC#Cc1ccccc1C#Cc1ccc([N+](=O)[O-])cc1
Reply: 13.5 µM

Ask: Item: Cc1cccc(C)c1NC(=O)C(=O)C1C(=O)NC(=O)NC1=O
Reply: > 100 µM

Ask: Item: Cn1c([O-])nc(-n2cc[n+](C)c2)cc1=O
Reply: > 100 µM

Ask: Item: COc1cc(C2=NOC(c3cc(OC)c(OC)c(OC)c3)C2)ccc1OCCCCOc1cc2c(cc1OC)C(=O)N1CCC[C@H]1C=N2 (stereo partly drawn)
Reply: 0.575 µM

Ask: Item: Cc1ccc2c(c1)[n+]([O-])c(N)n[n+]2[O-]
Reply: > 100 µM

Ask: Item: COc1ccc(C2=CC3CCC2C3)cc1 (stereo not drawn)
Reply: > 100 µM

Ask: Item: C=CCOCCCCC(C(C)=O)C(=O)OC (stereo not drawn)
Reply: > 100 µM

Ask: Item: CCOc1cc(-c2nc3ccccn3c2/N=C/c2cc(Br)ccc2O)ccc1O
Reply: > 100 µM

Ask: Item: O=C(CSc1n[nH]c(=O)[nH]c1=O)NNC(=O)c1cccc2nc3ccccc3nc12
Reply: > 100 µM

Ask: Item: Brc1ccc2c(-c3csc(-c4c[nH]c5cc(Br)ccc45)n3)c[nH]c2c1
Reply: 32.3 µM

Ask: Item: N#Cc1ccc(O)c(C2=NCC(c3cccc(Oc4ccccc4)c3)O2)c1 (stereo not drawn)
Reply: 13.7 µM

Ask: Item: CCOC(=O)C(CC#Cc1ccc(C#CCC(NC(C)=O)C(=O)OCC)cc1)NC(C)=O (stereo not drawn)
Reply: > 100 µM

Ask: Item: COC1(OC)CCCCC2c3cccc(OC(C)=O)c3C21OC(C)=O (stereo not drawn)
Reply: > 100 µM

Ask: Item: O=C1C(Cl)N(c2ccccc2[N+](=O)[O-])C1c1c[nH]c2ccccc12 (stereo not drawn)
Reply: > 100 µM

Ask: Item: CC1(C(=O)O)CCCC1C(=O)O (stereo not drawn)
Reply: > 100 µM

Ask: Item: CC1(C)OCC2OC3([C@H]4OC(C)(C)O[C@@H]4CO)OC(C)(C)OC3C2O1 (stereo partly drawn)
Reply: > 100 µM

Ask: Item: CCC[CH2][Sn]1([CH2]CCC)[O]Cc2nc(C)ccc2[O]1
Reply: 24.5 µM

Ask: Item: O=C(O)C(CO)NC(=O)n1c2ccccc2c2ccccc21 (stereo not drawn)
Reply: > 100 µM
